tested.on: UniProt:P01116
Sequence (P01116 1-188 isoform P01116-2): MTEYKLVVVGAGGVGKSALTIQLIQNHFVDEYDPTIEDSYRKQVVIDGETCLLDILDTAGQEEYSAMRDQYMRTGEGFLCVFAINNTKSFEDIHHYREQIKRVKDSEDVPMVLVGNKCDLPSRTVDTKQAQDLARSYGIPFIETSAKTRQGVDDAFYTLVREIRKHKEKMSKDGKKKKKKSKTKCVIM
assay.overview: Binding to KRAS by surface plasmon resonance (SPR), dissociation constant KD
measurement.context: Single Cycle Kinetics
Protocol: Surface plasmon resonance was used to analyze the binding affinity of compounds for KRAS, NRAS, and HRAS. […] The resulting sensorgram was subjected to curve fitting based on a 1:1 binding model on Biacore Insight Evaluation Software or T200 Evaluation Software, and thereby the dissociation constant KD of each compound with respect to KRAS, NRAS, and HRAS was determined. […]
Rule: measured Kd below 0.3 nM gets label 1; anything equal to or greater than 0.3 nM gets label 0.

Please review the entries below; each comes with its answer.
compound: CCC[C@H]1C(=O)N[C@@H]([C@@H](C)CC)C(=O)N2CCC[C@H]2C(=O)N(C)[C@H]2C/C=C\CCN(C2=O)[C@@H](Cc2ccc(C(F)(F)F)cc2)C(=O)N(C)CC(=O)N[C@@H](CCc2ccc(C(F)(F)F)c(OC)c2)C(=O)N2CC[C@H](OC)[C@H]2C(=O)N(C)C2(CCC2)C(=O)N(C)[C@@H](C2CCCC2)C(=O)N(C)[C@H](C(=O)N(C)C)CC(=O)N1C [PP3241]
category.label: label 0
--
compound: CCO[C@@H]1C[C@H]2C(=O)NC3(CCCC3)C(=O)N(C)[C@@H](C3CCC3)C(=O)N(C)[C@H](C(=O)N(C)C)CC(=O)N(C)[C@@H](CC(C)C)C(=O)N[C@@H]([C@@H](C)CC)C(=O)N(C)CC(=O)N(C)[C@H]3C/C(F)=C\CCN(C3=O)[C@@H](Cc3ccc(C(F)(F)F)cc3)C(=O)N(C)CC(=O)N[C@@H](CCc3cc(F)c(C(F)(F)F)c(F)c3)C(=O)N2C1 [PP3516]
category.label: label 0
--
compound: CCC[C@H]1C(=O)N[C@@H]([C@@H](C)CC)C(=O)N2CCCC[C@H]2C(=O)N(C)[C@H]2C/C=C\CCN(C2=O)[C@@H](Cc2ccc(C)cc2)C(=O)N(C)CC(=O)N[C@@H](CCc2cc(F)c(C(F)(F)F)c(F)c2)C(=O)N2C[C@H](OCC)C[C@H]2C(=O)N(C)C2(CCC2)C(=O)N(C)[C@@H](C2CCCC2)C(=O)N(C)[C@H](C(=O)N(C)C)CC(=O)N1C [PP3274]
category.label: label 0

## Task Hello, is Kd of the following compound strictly smaller than 0.3 nM? CC[C@H](C)[C@@H]1NC(=O)[C@H](Cc2cccc(Cl)c2)N(C)C(=O)C[C@@H](C(=O)N2CCOCC2)N(C)C(=O)[C@H](C2CCCC2)N(C)C(=O)C2(CCCC2)NC(=O)[C@@H]2CCCN2C(=O)[C@H](CCc2ccc(C(F)(F)F)c(Cl)c2)NC(=O)CN(C)C(=O)[C@H](Cc2ccc(F)cc2)N2CCCCC[C@@H](C2=O)N(C)C(=O)CN(C)C1=O [PP0963]
## Result label 0

## Task Hello, is Kd of the following compound strictly smaller than 0.3 nM? CCCN1CC(=O)N(C)[C@H]2C/C=C\CCN(C2=O)[C@@H](Cc2ccc(C(F)F)cc2)C(=O)N(C)CC(=O)N[C@@H](CCc2cc(F)c(C(F)(F)F)c(F)c2)C(=O)N2C[C@H](OC(C)C)C[C@H]2C(=O)N(C)C2(CCC2)C(=O)N(C)[C@@H](C(CC)CC)C(=O)N(C)[C@H](C(=O)N(C)C)CC(=O)N(C)[C@@H](COCC)C(=O)N[C@@H](C2CCCC2)C1=O [PP3498]
## Result label 0

## Task Hello, is Kd of the following compound strictly smaller than 0.3 nM? C#CC[C@H]1C(=O)N[C@@H]([C@@H](C)CC)C(=O)N2CCC[C@H]2C(=O)N(C)[C@H]2C/C=C\CCN(C2=O)[C@@H](Cc2ccc(C(F)(F)F)cc2)C(=O)N(C)CC(=O)N[C@@H](CCc2ccc(C(F)(F)F)c(Cl)c2)C(=O)N2C[C@H](OCC)C[C@H]2C(=O)N(C)C2(CCC2)C(=O)N(C)[C@@H](C2CCCC2)C(=O)N(C)[C@H](C(=O)N(C)C)CC(=O)N1C [PP3254]
## Result label 1
